Test system: isoproterenol antagonism concerning myocardial contractile force, heart rate and diastolic blood pressure
METHOD_SUMMARY: isoproterenol antagonism in anesthetized dogs
Type: in vivo
STATED_CONDITIONS: anesthetized dogs; activity of Propranolol is 1
Mark satisfied for Inhibition of decrease in diastolic blood pressure, relative activity under 20, not satisfied if at or over.

1) CC(=O)c1cc2cccc(OCC(O)CNC(C)(C)C)c2o1 (centres unmarked) :: satisfied
2) CCC(C)NCC(O)COc1cccc2cc(C(C)=O)oc12 (centres unmarked) :: satisfied
3) CC(=O)c1cc2c(OCC(O)CNC(C)(C)C)cccc2o1 (centres unmarked) :: satisfied
4) CC(=NC(C)C)c1cc2c(OCC(O)CNC(C)C)cccc2o1 (centres unmarked) :: not satisfied
5) CCC(C)N=C(C)c1cc2c(OCC(O)CNC(C)CC)cccc2o1 (centres unmarked) :: not satisfied
